// provenance: patent US8586751B2

system: Ramos B cells with beta-lactamase reporter gene under control of an NFAT response element; assay: NFAT-bla RA1 Reporter Assay (Ramos-NFAT); format: cell-based, human; conditions: Homo sapiens, Ramos, read-out: IMM Ramos-NFAT (IC50)
MEASUREMENT_KIND: pIC50
Scale for pIC50: -log10 of concentration given in mol/L; no unit attached.

Sample answers from the record:
- CN1CCC(c2ccc(Nc3nc(N4CCC[C@@H](NC(=O)Nc5nncs5)C4)c(F)cc3C(N)=O)cc2)CC1 [Example 493]: 6.89
- NC(=O)c1ccc(-c2cccc3c2CCN(C(=O)c2ccccc2)C3)nc1Nc1ccc(-c2cnco2)cc1 [Example 346]: 5.00

For Ramos B cells with beta-lactamase reporter gene under control of an NFAT response element, give the measured pIC50 of the entry NC(=O)c1cc(F)c(N2CCC[C@@H](NC(=O)c3ccccc3)C2)nc1Nc1ccc(N2CCS(=O)(=O)CC2)cc1 [Example 503]
7.10

###

biological target: human recombinant Btk (Homo sapiens); test: Human Recombinant Btk Enzyme Assay (LLE_BTK)
MEASUREMENT_KIND: log10 IC50 (log10 of the value in nM)
Recall that a logarithmic scale is used here: each number is log10 of IC50 in nM.

Sample answers from the record:
* NC(=O)c1cc(F)c(N2CCC[C@@H](NC(=O)c3ccccc3)C2)nc1Nc1ccc(N2CCOCC2)cc1 | 1.30
* CN1CCCC(c2ccc(Nc3nc(N4CCC[C@@H](NC(=O)Nc5ncc(F)s5)C4)c(F)cc3C(N)=O)cc2)C1 (some centres unmarked) | 0.00
* NC(=O)c1cc(F)c(N2CCC[C@@H](NC(=O)Nc3nccs3)C2)nc1Nc1ccc(N2CCOCC2)cc1 | 0.30
* CN1CCN(c2ccc(Nc3nc(N4CCC[C@@H](NC(=O)Nc5nccs5)C4)c(F)cc3C(N)=O)cc2)CC1 | 0.48
* CN1CCN(c2ccc(Nc3nc(N4CCC[C@@H](NC(=O)Nc5nccs5)C4)c(F)cc3C(N)=O)cc2F)CC1 | -0.70

Fill in reported log10 IC50 for this entry: `CN1CCC(c2ccc(Nc3nc(N4CCC[C@@H](NC(=O)Nc5nccs5)C4)c(F)cc3C(N)=O)cc2)CC1`
0.00

Fill in reported log10 IC50 for this entry: `CN1CCC(C)(c2ccc(Nc3nc(N4CCC[C@@H](NC(=O)Nc5ncc(F)s5)C4)c(F)cc3C(N)=O)cc2)CC1`
0.00

Fill in reported log10 IC50 for this entry: `NC(=O)c1cc(F)c(N2CCOCC2)nc1Nc1cccc(N(S(=O)(=O)CCCCl)S(=O)(=O)CCCCl)c1`
2.99

Fill in reported log10 IC50 for this entry: CN1CCCC(c2ccc(Nc3nc(N4CCC[C@@H](NC(=O)Nc5nnc(C(F)(F)F)s5)C4)c(F)cc3C(N)=O)cc2)C1 (some centres unmarked)
0.30

Fill in reported log10 IC50 for this entry: `CC(C)(C)c1ccc(NC(=O)[C@@H]2CCCN(c3ccc(C(N)=O)c(Nc4ccc(C(=O)N5CCOCC5)cc4)n3)C2)cc1`
3.43

Fill in reported log10 IC50 for this entry: `CN(c1cccc(Nc2nc(N3CCOCC3)c(F)cc2C(N)=O)c1)S(=O)(=O)c1cccc2ccccc12`
3.08

Fill in reported log10 IC50 for this entry: `NC(=O)c1ccc(N2CCC[C@@H](N)C2)nc1Nc1ccccc1`
3.18

Fill in reported log10 IC50 for this entry: `CN1CCN(c2ccc(Nc3nc(N4CCC[C@@H](NC(=O)c5ccc(F)cc5)C4)c(F)cc3C(N)=O)cc2)CC1`
0.00

Fill in reported log10 IC50 for this entry: `CN1CCC(c2ccc(Nc3nc(N4CCC[C@@H](NC(=O)c5ccccc5)C4)c(F)cc3C(N)=O)cc2)CC1`
0.48

###

molecular target: human recombinant Btk (Homo sapiens, UniProt Q06187); assay: Human Recombinant Btk Enzyme Assay (LLE_BTK)
Sequence (Q06187 whole entry): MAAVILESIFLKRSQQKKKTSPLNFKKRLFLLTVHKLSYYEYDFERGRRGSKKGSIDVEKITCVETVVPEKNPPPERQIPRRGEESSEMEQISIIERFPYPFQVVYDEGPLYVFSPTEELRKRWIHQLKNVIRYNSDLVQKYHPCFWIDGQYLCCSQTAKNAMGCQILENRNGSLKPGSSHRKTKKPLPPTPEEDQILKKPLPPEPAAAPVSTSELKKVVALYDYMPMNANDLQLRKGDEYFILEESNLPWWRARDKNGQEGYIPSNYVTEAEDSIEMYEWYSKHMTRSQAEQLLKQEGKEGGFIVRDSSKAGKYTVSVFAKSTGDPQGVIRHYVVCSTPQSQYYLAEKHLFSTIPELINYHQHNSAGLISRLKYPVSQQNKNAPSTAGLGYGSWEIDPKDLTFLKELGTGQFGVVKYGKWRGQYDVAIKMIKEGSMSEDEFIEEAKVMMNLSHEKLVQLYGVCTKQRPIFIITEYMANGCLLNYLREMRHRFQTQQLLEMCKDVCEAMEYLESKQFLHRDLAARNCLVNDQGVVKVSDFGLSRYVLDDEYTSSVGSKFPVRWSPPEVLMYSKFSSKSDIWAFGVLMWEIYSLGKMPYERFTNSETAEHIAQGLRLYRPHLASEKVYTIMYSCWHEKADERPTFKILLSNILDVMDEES
MEASUREMENT_KIND: IC50 (nM)
Provide the reading as a plain figure in nM.

Sample answers from the record:
- CS(=O)(=O)Nc1cccc(Nc2nc(-c3ccc(Cl)cc3)ccc2C(N)=O)c1: 1200
- Cc1ccc(NC(=O)N[C@@H]2CCCN(c3ccc(C(N)=O)c(Nc4ccc(N5CCN(C)CC5)cc4)n3)C2)cc1C: 10
- CC(C)(C)c1ccc(C(=O)Nc2cccc(-c3ccc(C(N)=O)c(Nc4ccc(C(=O)N5CCOCC5)cc4)n3)c2)cc1: 1400

Note: attention shifts to another entry.
Fill in reported IC50 for this entry: `CN1CCN(c2ccc(Nc3nc(N4CCC[C@@H](NC(=O)Nc5nccs5)C4)ccc3C(N)=O)cc2)CC1`
7

###

# pIC50 annotations
target: human recombinant Btk (Homo sapiens, UniProt Q06187); construct: purchased Invitrogen Corporation; assay: Human Recombinant Btk Enzyme Assay (LLE_BTK); assay type: biochemical
Scale for pIC50: -log10 of concentration given in mol/L; no unit attached.

Sample answers from the record:
* CN1CCCC(c2ccc(Nc3nc(N4CCC[C@@H](NC(=O)Nc5nnc(C(C)(C)C)s5)C4)c(F)cc3C(N)=O)cc2)C1 (stereo partly shown) [Example 561] | 9.05
* NC(=O)c1cc(F)c(N2CCC[C@@H](NC(=O)Nc3nccs3)C2)nc1Nc1ccc(C2CCOCC2)cc1 [Example 555] | 8.52
* CN(c1cccc(Nc2nc(-c3ccc(Cl)cc3)ccc2C(N)=O)c1)S(=O)(=O)Cc1ccccc1 [Example 376] | 5.16
* CC(=O)N1CCc2c(cccc2-c2ccc(C(N)=O)c(Nc3ccc(-c4cnco4)cc3)n2)C1 [Example 347] | 5.70
* NC(=O)c1ccc(N2CCC[C@@H](C(=O)O)C2)nc1Nc1ccc(C(=O)N2CCOCC2)cc1 [Example 165] | 5.54

Fill in reported pIC50 for this entry: CN1CCN(c2ccc(Nc3nc(N4CCC[C@@H](NC(=O)c5ccccc5)C4)c(F)cc3C(N)=O)cc2)CC1 [Example 388]
8.40

Fill in reported pIC50 for this entry: NC(=O)c1ccc(N2CCNCC2)nc1Nc1ccc(C(=O)N2CCOCC2)cc1 [Example 10]
5.74

###

system: Ramos B cells with beta-lactamase reporter gene under control of an NFAT response element; experiment: NFAT-bla RA1 Reporter Assay (Ramos-NFAT); format: cell-based, human; conditions: Homo sapiens, Ramos, read-out: IMM Ramos-NFAT (IC50)
# pIC50 annotations
Scale for pIC50: -log10 of concentration given in mol/L; no unit attached.

Fill in reported pIC50 for this entry: `CC(C)(C)NCCc1ccc(Nc2nc(N3CCC[C@@H](NC(=O)Nc4nccs4)C3)c(F)cc2C(N)=O)cc1`
6.92

Fill in reported pIC50 for this entry: `COc1ccc([C@H](C)N[C@H]2CCC[C@H](c3nc(Nc4ccc(N5CCOCC5)cc4)c(C(N)=O)cc3F)C2)cc1`
5.35

###

test system: Ramos B cells with beta-lactamase reporter gene under control of an NFAT response element; experiment: NFAT-bla RA1 Reporter Assay (Ramos-NFAT); type: cell-based, human; details: Homo sapiens, Ramos, read-out: IMM Ramos-NFAT (IC50)
pIC50: −log10 of the molar value.
Label y when pIC50 >= 7; otherwise n.

- CS(=O)(=O)c1ccc(Nc2nc(N3CCC[C@@H](NC(=O)Nc4nccs4)C3)c(F)cc2C(N)=O)cc1: n
- CN1CCN(c2ccc(Nc3nc(N4CCC[C@@H](NC(=O)c5ccc(F)cc5)C4)c(F)cc3C(N)=O)cc2)CC1: n
- CN1CCC(C)(c2ccc(Nc3nc(N4CCC[C@@H](NC(=O)c5ccccc5)C4)c(F)cc3C(N)=O)cc2)CC1: y
- NC(=O)c1cc(F)c(N2CCC[C@@H](NC(=O)c3ccc(F)c(Cl)c3)C2)nc1Nc1ccc(F)cc1: n
- CN1CCC(c2ccc(Nc3nc(N4CCC[C@@H](NC(=O)Nc5nccs5)C4)c(F)cc3C(N)=O)cc2)CC1: y

Now consider a different compound.
Please indicate if the recorded pIC50 for `NC(=O)c1cc(F)c(N2CCC[C@@H](NC(=O)Nc3nccs3)C2)nc1Nc1ccc(CCN2CCC2)cc1` meets or exceeds 7.
y

###

target: human recombinant Btk (Homo sapiens, UniProt Q06187); assay: Human Recombinant Btk Enzyme Assay (LLE_BTK)
With a cut-off of 2 nM, any IC50 strictly below it is called class 1; any IC50 meeting it or above is called class 0.

• CN1CCC(c2ccc(Nc3nc(N4CCC[C@@H](NC(=O)Nc5nncs5)C4)c(F)cc3C(N)=O)cc2)CC1 = class 1
• CC(C)(C)c1ccc(NC(=O)[C@@H]2CCN(c3ccc(C(N)=O)c(Nc4ccc(C(=O)N5CCOCC5)cc4)n3)C2)cc1 = class 0
• NC(=O)c1ccc(NCc2ccccc2)nc1Nc1ccccc1 = class 0
• CS(=O)(=O)c1ccc(Nc2nc(N3CCCC4(CC(c5ccccc5)=NO4)C3)ccc2C(N)=O)cc1 (stereo not shown) = class 1
• CN(c1cccc(Nc2nc(-c3ccc(Cl)cc3)ccc2C(N)=O)c1)S(=O)(=O)c1ccccc1 = class 0

Now consider a different compound.
Does the reported IC50 of `CC(=O)N1CCN(c2ccc(Nc3nc(N4CCC[C@@H](NC(=O)Nc5ccc(C)c(C)c5)C4)ccc3C(N)=O)cc2)CC1` stay below 2 nM?
class 0
